Ref: ChEMBL document CHEMBL1140693

The compounds below have reported IC50 for Heat shock protein HSP90 (Homo sapiens, UniProt P07900+P08238).
Numbers only, in µM.

CCNC(=O)c1noc(-c2cc(Cl)c(O)cc2O)c1-c1ccc(CN2CCCC2)cc1 : 0.039
CCNC(=O)c1noc(-c2cc(-c3ccccc3C)c(O)cc2O)c1-c1ccc(CN2CCCCC2)cc1 : 0.014
CCNC(=O)c1noc(-c2cc(CCc3ccc(F)cc3)c(O)cc2O)c1-c1ccc(CN2CCOCC2)cc1 : 0.02
CCNC(=O)c1noc(-c2cc(-c3ccccc3)c(O)cc2O)c1-c1ccc(CN2CCCCC2)cc1 : 0.014

Task: Identify measured IC50 associated with CCNC(=O)c1noc(-c2cc(Cl)c(O)cc2O)c1-c1cccc(N2CCOCC2)c1
Output: 0.127
